# maps each entry to its pKd
# Assayed Target: T1, extracellular domain of human PRLR (monomeric, soluble) (human, UniProt P16471 25-234)
# T1 construct: also called ECD-PRLR; ECD of PRLR
# T1 sequence: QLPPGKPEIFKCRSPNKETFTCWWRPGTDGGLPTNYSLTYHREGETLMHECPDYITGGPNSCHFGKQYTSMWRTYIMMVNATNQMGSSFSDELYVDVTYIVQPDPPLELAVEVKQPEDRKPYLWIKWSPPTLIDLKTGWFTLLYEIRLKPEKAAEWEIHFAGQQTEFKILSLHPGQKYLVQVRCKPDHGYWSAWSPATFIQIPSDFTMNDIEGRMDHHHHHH
# Test Description: SPR (Biacore), IgG1 directly immobilized, monomeric human PRLR ECD from HEK293 as analyte
pKd: −log10 of the molar value.

>  <Binder>
002-H08 (antibody, V domains shown, Tested as human IgG1) VH: QVELLESGGGLVQPGGSLRLSCAASGFTFSSYGMHWVRQAPGKGLEWVSGVSWNGSRTHYADSVKGRLTISRDNSKNTLYLQMNSLRAEDTAVYYCARGGDFDYWGQGTLVTVSS VL: QSVLTQPPSASGTPGQRVTISCSGSSSNIGSNDVYWYQQLPGTAPKLLIYDNNKRPSGVPDRFSGSKSGTSASLAISGLRSEDEADYYCQSYDSSLSGSWVFGGGTKLTVLG

>  <pKd>
8.74

$$$$
>  <Binder>
XHA06.642 (antibody, V domains shown, Novartis antibody (WO2008/022295)) VH: EVQLVESGGDLVKPGGSLKLSCAVSGFTFSSYGMSWVRQTPDKRLEWVATVSSGGTYTYYPDSVKGRFTISRDNAKNTLYLQMSSLKSEDSAMYYCARHRGNYYATYYYAMDYWGQGTSVTVSS VL: DIVLTQSPASLAVSLGQGATISCRASKSVSTSGYTYMHWYQQKPGQPPKLLIYLASNLESGVPARFSGSGSGTDFTLNIHPVEEEDAATYYCQHSGELPPSFGGGTKLEIKR

>  <pKd>
8.92

$$$$
>  <Binder>
005-C04 (antibody, V domains shown, Tested as human IgG1; also called IgG1 005-C04; 005-004) VH: EVQLLESGGGLVQPGGSLRLSCAASGFTFSSYWMHWVRQAPGKGLEWVSDISSASSYTNYADSVKGRFTISRDNSKNTLYLQMNSLRAEDTAVYYCARGLDARRMDYWGQGTLVTVSS VL: QSVLTQPPSASGTPGQRVTISCTGSSSNIGAGYVVHWYQQLPGTAPKLLIYRNNQRPSGVPDRFSGSKSGTSASLAISGLRSEDEADYYCAAWDDSLNGWLFGGGTKLTVLG

>  <pKd>
7.91

$$$$
>  <Binder>
HE06.642 (antibody, V domains shown, Human Engineered Novartis antibody (WO2008/022295); tested as human IgG1) VH: EVQLVESGGGLVQPGGSLRLSCAVSGFTFSSYGMSWVRQAPGKGLEWVATVSSGGTYTYYPDSVKGRFTISRDNSKNTLYLQMNSLRAEDTAVYYCARHRGNYYATYYYAMDYWGQGTLVTVSS VL: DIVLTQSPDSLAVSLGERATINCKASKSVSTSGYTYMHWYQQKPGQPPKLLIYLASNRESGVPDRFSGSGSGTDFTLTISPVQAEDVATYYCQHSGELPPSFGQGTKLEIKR

>  <pKd>
9.52

$$$$
